# Tested on: Mycobacterium tuberculosis CRY-2; CRY-25
I'd appreciate it if you could supply MIC (REMA) values for the items below.
One number for each entry, in µg/mL.

Answered cases to consult:
COMPOUND	MIC (REMA) / µg/mL
CC[C@@H](CO)NCCN[C@@H](CC)CO [Ethambutol]	1
CC(=O)NC[C@H]1CN(c2ccc(N3CCOCC3)c(F)c2)C(=O)O1 [Linezolid]	0.25

Retrieve MIC (REMA) measured for CC(C)/N=c1\cc2n(-c3ccc(Cl)cc3)c3ccccc3nc-2cc1Nc1ccc(Cl)cc1 [Clofazimine] and print it.
0.12
